target: Human CCR3 (Homo sapiens); construct: The cloned CCR3 cDNA was constructed with pcDNA3 vector and transfected into a IC562 cell line; expressed in transfected cells; assay: Calcium mobilization assay, eotaxin-stimulated; format: cell-based; settings: human CCR3-transformed K562 cells, 10 nM eotaxin; compounds of about 40 to 90% purity; read-out: Activity grade Ca2+ (IC50 class)
pIC50: −log10 of the molar value. Structures can show the parent of a compound that is named as a salt.
Provide the recorded pIC50 for the entries that follow.

{"compound": "Cc1cc(C)cc(Oc2ccc(NC(=O)c3cccc4ccccc34)cc2S(=O)(=O)N2CCNCC2)c1 [Example 7-7]", "pIC50": "5.00 to 6.00"}
{"compound": "N#Cc1ccc(Oc2cc(Cl)cc(Cl)c2)c(S(=O)(=O)N2CC[C@H](N)C2)c1 [Example 13-1, hydrochloride]", "pIC50": "> 6.00"}
{"compound": "Cc1cc(C)cc(Oc2ccc(NC(=O)Cc3ccccc3)cc2S(=O)(=O)N2CCNCC2)c1 [Example 7-1]", "pIC50": "< 5.00"}
{"compound": "Cc1cc(C)cc(Oc2cc(C)c(N)cc2S(=O)(=O)N2CCNCC2)c1.Cl.Cl [Example 5-7]", "pIC50": "< 5.00"}
{"compound": "Cc1cc(C)c(Sc2ccc([N+](=O)[O-])cc2S(=O)(=O)N2CCNCC2)c(C)c1.Cl [Example 2-15]", "pIC50": "5.00 to 6.00"}

For each of the items listed, what is its pIC50?
1. Cc1cc(C)cc(Oc2ccc(NC(=O)C(C)(C)C)cc2S(=O)(=O)N2CCNCC2)c1 [Example 7-3]
2. CN(C)CCCCNS(=O)(=O)c1cc([N+](=O)[O-])ccc1Oc1cc(Cl)cc(Cl)c1 [Example 4-39]
3. Cc1cc(C)cc(Oc2cc(C(F)(F)F)ccc2S(=O)(=O)N2CCNCC2)c1.Cl [Example 1-46]
4. O=[N+]([O-])c1ccc(Oc2cc(Cl)cc(Cl)c2)c(S(=O)(=O)N2CCN(CCC(F)(F)F)CC2)c1 [Example 4-34]
5. Cc1ccc(C)c(Oc2ccc([N+](=O)[O-])cc2S(=O)(=O)N2CCNCC2)c1C.Cl [Example 1-61]
6. Cc1cc(Oc2ccc([N+](=O)[O-])cc2S(=O)(=O)N2CCNCC2)cc(C)c1C.Cl [Example 1-69]

["< 5.00", "> 6.00", "< 5.00", "> 6.00", "5.00 to 6.00", "> 6.00"]

* * *

biological target: Human CCR3 (Homo sapiens, UniProt P51677); construct: The cloned CCR3 cDNA was constructed with pcDNA3 vector and transfected into a IC562 cell line; expressed in transfected cells; test: Receptor binding assay (RBA), [125I]-eotaxin; conditions: human CCR3-transformed K562 cells, 0.1 nM [125I]-eotaxin; compounds of about 40 to 90% purity; read-out: Activity grade RBA (IC50 class)
Sequence (P51677 whole entry): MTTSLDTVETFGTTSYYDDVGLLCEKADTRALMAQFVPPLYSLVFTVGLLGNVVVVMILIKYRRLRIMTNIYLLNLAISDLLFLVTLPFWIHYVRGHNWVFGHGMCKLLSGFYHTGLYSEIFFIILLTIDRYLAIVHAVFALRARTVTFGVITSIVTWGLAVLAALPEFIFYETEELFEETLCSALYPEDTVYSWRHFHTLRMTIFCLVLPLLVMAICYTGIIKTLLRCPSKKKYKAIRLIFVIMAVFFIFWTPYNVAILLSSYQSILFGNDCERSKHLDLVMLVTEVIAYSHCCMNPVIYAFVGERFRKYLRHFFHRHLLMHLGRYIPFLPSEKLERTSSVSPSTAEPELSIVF
pIC50: −log10 of the molar value. Structures can show the parent of a compound that is named as a salt.
metric-name: pIC50

A selection of reference data follows.
{"molecule": "Cc1cc(C)cc(Oc2ccc([N+](=O)[O-])cc2S(=O)(=O)N2CCN(C3CCCCC3)CC2)c1", "pIC50": "> 6.00"}
{"molecule": "CCN1CCN(S(=O)(=O)c2cc(I)ccc2Oc2cc(C)cc(C)c2)CC1", "pIC50": "> 6.00"}
{"molecule": "O=[N+]([O-])c1ccc(Nc2ccccc2Cl)c(S(=O)(=O)N2CCNCC2)c1", "pIC50": "< 5.00"}

For each of the items listed, what is its pIC50?
1. COCCCN1CCN(S(=O)(=O)c2cc([N+](=O)[O-])ccc2Oc2cc(Cl)cc(Cl)c2)CC1
2. Cc1cc(C)cc(Oc2ccc([N+](=O)[O-])cc2S(=O)(=O)N2CCN(CC3CCCO3)CC2)c1 (stereo not shown)
3. Cc1cc(C)cc(Oc2ccc([N+](=O)[O-])cc2S(=O)(=O)N2CCN(c3ccccc3)CC2)c1
4. Cc1cc(C)cc(Oc2ccc([N+](=O)[O-])cc2S(=O)(=O)N(C)CCN(C)C)c1
5. O=[N+]([O-])c1ccc(Nc2cc(Cl)cc(Cl)c2)c(S(=O)(=O)N2CCNCC2)c1
6. Cc1ccccc1Nc1ccc([N+](=O)[O-])cc1S(=O)(=O)N1CCNCC1
7. O=[N+]([O-])c1ccc(Oc2cc(Cl)cc(Cl)c2)c(S(=O)(=O)N2CCC(N3CCCC3)C2)c1 (stereo not shown)

1. > 6.00
2. > 6.00
3. < 5.00
4. > 6.00
5. > 6.00
6. 5.00 to 6.00
7. > 6.00

For each of the items listed, what is its pIC50?
1. Cc1cccc(Oc2ccc([N+](=O)[O-])cc2S(=O)(=O)N2CCNCC2)c1.Cl
2. N#Cc1ccc(Oc2cc(Cl)cc(Cl)c2)c(S(=O)(=O)N2C[C@@H]3CCCN[C@@H]3C2)c1
3. Cc1cc(C)cc(Oc2ccc(Br)cc2S(=O)(=O)N2CCNCC2)c1 [Example 8-1, hydrochloride]
4. Cc1cc(C)cc(Oc2ccc(NC(=O)c3cccc4ccccc34)cc2S(=O)(=O)N2CCNCC2)c1
5. Cc1cc(C)cc(Oc2ccc(NC(=O)Cc3ccccc3)cc2S(=O)(=O)N2CCNCC2)c1
6. CCN1CCC(N(CC)S(=O)(=O)c2cc([N+](=O)[O-])ccc2Oc2cc(C)cc(C)c2)C1 (stereo not shown)

1. > 6.00
2. 5.00 to 6.00
3. > 6.00
4. < 5.00
5. < 5.00
6. > 6.00

For each of the items listed, what is its pIC50?
1. Cl.O=[N+]([O-])c1ccc(Oc2cc(Cl)cc(Cl)c2)c(S(=O)(=O)N2CCNCC2)c1
2. Cl.N[C@H]1CCN(S(=O)(=O)c2cc([N+](=O)[O-])ccc2Oc2cc(Cl)cc(Cl)c2)C1
3. Cc1cc(C)cc(Oc2ccncc2S(=O)(=O)N2CCNCC2)c1 [Example 25-1, hydrochloride]
4. O=[N+]([O-])c1ccc(Oc2ccccc2F)c(S(=O)(=O)N2CCNCC2)c1
5. Cc1cc(Oc2ccc([N+](=O)[O-])cc2S(=O)(=O)N2CCNCC2)cc(C)c1Cl
6. COc1cc(C)cc(Oc2ccc([N+](=O)[O-])cc2S(=O)(=O)N2CCNCC2)c1.Cl

["> 6.00", "> 6.00", "5.00 to 6.00", "5.00 to 6.00", "> 6.00", "> 6.00"]

For each of the items listed, what is its pIC50?
1. Cc1cc(Oc2ccc([N+](=O)[O-])cc2S(=O)(=O)N2CCNCC2)cc(C(C)C)c1.Cl
2. N#Cc1ccc(Oc2cc(Cl)cc(Cl)c2)c(S(=O)(=O)N2CCCC3CN(Cc4ccccc4)CC32)c1 (stereo not shown)
3. Cc1cc(C)cc(Oc2ccc([N+](=O)[O-])cc2S(=O)(=O)N2CCC(N(C)C)CC2)c1.Cl
4. CCCC(C)N1CCN(S(=O)(=O)c2cc([N+](=O)[O-])ccc2Oc2cc(C)cc(C)c2)CC1 (stereo not shown)

1: > 6.00; 2: 5.00 to 6.00; 3: > 6.00; 4: > 6.00

For each of the items listed, what is its pIC50?
1. O=[N+]([O-])c1ccc(Oc2cc(Cl)cc(Cl)c2)c(S(=O)(=O)N2CCN(CC3CCCO3)CC2)c1 (stereo not shown)
2. CCC(CC)N1CCN(S(=O)(=O)c2cc([N+](=O)[O-])ccc2Oc2cc(C)cc(C)c2)CC1
3. Cc1cc(C)cc(Oc2cc3cc[nH]c3cc2S(=O)(=O)N2CCNCC2)c1 [Example 11-1, trifluoroacetate]

1. > 6.00
2. > 6.00
3. < 5.00

For each of the items listed, what is its pIC50?
1. Cc1cc(C)cc(Oc2ccc(NC(=O)C(C)(C)C)cc2S(=O)(=O)N2CCNCC2)c1
2. N#Cc1ccc(Nc2cc(Cl)cc(Cl)c2)c(S(=O)(=O)N2CCNCC2)c1 [Example 20-1, hydrochloride]

["< 5.00", "> 6.00"]

The origin of these recorded values is patent US8242118B2.
